- system_name: T1, FR3exFc (human)
- T1 construct: also called FGFR3/Fc; FR3/Fc
- test_method_notes: BIACORE
reported_property: koff (s⁻¹)
Give bare numbers, in s⁻¹.

Example cases with answers are listed next.
| binder | unit_abbrev | koff |
| --- | --- | --- |
| MSPRO55 (Fab, V domains shown) VH: QVQLVQSGAEVKKPGASVKVSCKASGYTFTSYYMHWVRQAPGQGLEWMGWINPNSGGTNYAQKFQGRVTMTRDTSISTAYMELSSLRSEDTAVYYCARSMNSTMYWYLRRVLFDHWGQGTLVTVSS VL: DIALTQPASVSGSPGQSITISCTGTSSDVGGYNYVSWYQQHPGKAPKLMIYDVSNRPSGVSNRFSGSKSGNTASLTISGLQAEDEADYYCQSYDMYNYIVFGGGTKLTVLG | s⁻¹ | 0.00074 |
| MSPRO11 (Fab, V domains shown) VH: QVQLVQSGAEVKKPGASVKVSCKASGYTFTSYYMHWVRQAPGQGLEWMGWINPNSGGTNYAQKFQGRVTMTRDTSISTAYMELSSLRSEDTAVYYCARYYGSSLYHYVFGGFIDYWGQGTLVTVSS VL: DIALTQPASVSGSPGQSITISCTGTSSDVGGYNYVSWYQQHPGKAPKLMIYDVSNRPSGVSNRFSGSKSGNTASLTISGLQAEDEADYYCQSHHFYEVFGGGTKLTVLG | s⁻¹ | 0.0004 |

Okay, next one:
Inquiry: Which koff is reported for this binder? MSPRO28 (Fab, V domains shown) VH: QVQLVQSGAEVKKPGSSVKVSCKASGGTFSSYAISWVRQAPGQGLEWMGGIIPIFGTANYAQKFQGRVTITADESTSTAYMELSSLRSEDTAVYYCARGGGWVSHGYYYLFDLWGQGTLVTVSS VL: DIQMTQSPSSLSASVGDRVTITCRASQGISSYLAWYQQKPGKAPKLLIYAASSLQSGVPSRFSGSGSGTDFTLTISSLQPEDFAVYYCFQYGSIPPTFGQGTKVEIKR
Reply text: 0.004
